# ASSAY PROCEDURE: clinical;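 note: blood and plasma drug levels in patients quantified by UPLC tandem mass spectrometry, with PK parameters derived by non-compartmental analysis of concentration–time profiles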
# TEST SETTINGS: human, in vivo, 5 mg, Vz
QUANTITY NAME: Vd (L)
Form entry: value (L) — number only.

Give recorded Vd. CC(=O)O[C@H]1C(=O)[C@@]2(C)[C@H]([C@H](OC(=O)c3ccccc3)[C@]3(O)C[C@H](OC(=O)[C@H](O)[C@@H](NC(=O)c4ccccc4)c4ccccc4)C(C)=C1C3(C)C)[C@]1(OC(C)=O)CO[C@@H]1C[C@@H]2O [Paclitaxel] 858

* * *

# ASSAY PROCEDURE: clinical
# TEST SETTINGS: human, in vivo, 4 mg, Cmax
QUANTITY NAME: Cmax (ng/mL)
Form entry: value (ng/mL) — number only.

Give recorded Cmax. `CC(=O)O[C@H]1C(=O)[C@@]2(C)[C@H]([C@H](OC(=O)c3ccccc3)[C@]3(O)C[C@H](OC(=O)[C@H](O)[C@@H](NC(=O)c4ccccc4)c4ccccc4)C(C)=C1C3(C)C)[C@]1(OC(C)=O)CO[C@@H]1C[C@@H]2O` 1500

* * *

# ASSAY PROCEDURE: clinical
# TEST SETTINGS: human, in vivo, 3 mg, CL
QUANTITY NAME: clearance (mL/min)
Form entry: value (mL/min) — number only.

Give recorded clearance. CC(=O)O[C@H]1C(=O)[C@@]2(C)[C@H]([C@H](OC(=O)c3ccccc3)[C@]3(O)C[C@H](OC(=O)[C@H](O)[C@@H](NC(=O)c4ccccc4)c4ccccc4)C(C)=C1C3(C)C)[C@]1(OC(C)=O)CO[C@@H]1C[C@@H]2O [Paclitaxel] 437

* * *

# ASSAY PROCEDURE: clinical
# TEST SETTINGS: human, in vivo, 2.2 mg/m2, CL
QUANTITY NAME: clearance (mL/min)
Form entry: value (mL/min) — number only.

Give recorded clearance. CC(=O)O[C@H]1C(=O)[C@@]2(C)[C@H]([C@H](OC(=O)c3ccccc3)[C@]3(O)C[C@H](OC(=O)[C@H](O)[C@@H](NC(=O)c4ccccc4)c4ccccc4)C(C)=C1C3(C)C)[C@]1(OC(C)=O)CO[C@@H]1C[C@@H]2O [Paclitaxel] 525

* * *

# ASSAY PROCEDURE: clinical
# TEST SETTINGS: human, in vivo, 2.2 mg/m2, Vss
QUANTITY NAME: Vd (L)
Form entry: value (L) — number only.

Give recorded Vd. `CC(=O)O[C@H]1C(=O)[C@@]2(C)[C@H]([C@H](OC(=O)c3ccccc3)[C@]3(O)C[C@H](OC(=O)[C@H](O)[C@@H](NC(=O)c4ccccc4)c4ccccc4)C(C)=C1C3(C)C)[C@]1(OC(C)=O)CO[C@@H]1C[C@@H]2O` 324

* * *

# ASSAY PROCEDURE: clinical
# TEST SETTINGS: human, in vivo, 2.2 mg/m2, Vz
QUANTITY NAME: Vd (L)
Form entry: value (L) — number only.

Give recorded Vd. `CC(=O)O[C@H]1C(=O)[C@@]2(C)[C@H]([C@H](OC(=O)c3ccccc3)[C@]3(O)C[C@H](OC(=O)[C@H](O)[C@@H](NC(=O)c4ccccc4)c4ccccc4)C(C)=C1C3(C)C)[C@]1(OC(C)=O)CO[C@@H]1C[C@@H]2O` 662

* * *

# ASSAY PROCEDURE: clinical
# TEST SETTINGS: human, in vivo, 5 mg, CL
QUANTITY NAME: clearance

Give recorded clearance. `CC(=O)O[C@H]1C(=O)[C@@]2(C)[C@H]([C@H](OC(=O)c3ccccc3)[C@]3(O)C[C@H](OC(=O)[C@H](O)[C@@H](NC(=O)c4ccccc4)c4ccccc4)C(C)=C1C3(C)C)[C@]1(OC(C)=O)CO[C@@H]1C[C@@H]2O` 575 mL/min

* * *

# ASSAY PROCEDURE: clinical
# TEST SETTINGS: human, in vivo, 4 mg, Vss
QUANTITY NAME: Vd (L)
Form entry: value (L) — number only.

Give recorded Vd. `CC(=O)O[C@H]1C(=O)[C@@]2(C)[C@H]([C@H](OC(=O)c3ccccc3)[C@]3(O)C[C@H](OC(=O)[C@H](O)[C@@H](NC(=O)c4ccccc4)c4ccccc4)C(C)=C1C3(C)C)[C@]1(OC(C)=O)CO[C@@H]1C[C@@H]2O` 577

* * *

# ASSAY PROCEDURE: clinical
# TEST SETTINGS: human, in vivo, 4 mg
QUANTITY NAME: half-life (h)
Form entry: value (h) — number only.

Give recorded half-life. `CC(=O)O[C@H]1C(=O)[C@@]2(C)[C@H]([C@H](OC(=O)c3ccccc3)[C@]3(O)C[C@H](OC(=O)[C@H](O)[C@@H](NC(=O)c4ccccc4)c4ccccc4)C(C)=C1C3(C)C)[C@]1(OC(C)=O)CO[C@@H]1C[C@@H]2O` 29.2
